# study system: DNA (cytosine-5)-methyltransferase 1 (Homo sapiens)
# protocol summary: inhibition of DNA methyltransferase DNMT1 – biochemical, molecular beacon, fluorescence, HinP1I cleavage, uHTS, primary screen (AID 588458)
# cond: at 10 µM, active compounds read high
The campaign covered roughly 360,000 compounds. About 3,000 (0.83%) were called active. The list comes from a sample in which actives are over-represented; it also holds close analogues and randomly drawn compounds.
reported property: inhibition (reported as % activation of signal)

>>> reported_measurement("O=C(NNC1=NCCC1)c1cccc(S(=O)(=O)N2CCCCC2)c1")
"2.1% (inactive)"
>>> reported_measurement("CNc1cc(-c2c(OC)cccc2OC)ncn1")
"5.78% (inactive)"
>>> reported_measurement("C=Cc1ccc(C(=O)N2CCCC(CCC(=O)N3CCN(c4ccccn4)CC3)C2)cc1 (stereo not drawn)")
"80.1% (active)"

* * *

Measured inhibition (reported as % activation of signal), listed per entry.
# study system: DNA (cytosine-5)-methyltransferase 1 (Homo sapiens) (UniProt P26358)
# Sequence (P26358 504-1616 limits assumed): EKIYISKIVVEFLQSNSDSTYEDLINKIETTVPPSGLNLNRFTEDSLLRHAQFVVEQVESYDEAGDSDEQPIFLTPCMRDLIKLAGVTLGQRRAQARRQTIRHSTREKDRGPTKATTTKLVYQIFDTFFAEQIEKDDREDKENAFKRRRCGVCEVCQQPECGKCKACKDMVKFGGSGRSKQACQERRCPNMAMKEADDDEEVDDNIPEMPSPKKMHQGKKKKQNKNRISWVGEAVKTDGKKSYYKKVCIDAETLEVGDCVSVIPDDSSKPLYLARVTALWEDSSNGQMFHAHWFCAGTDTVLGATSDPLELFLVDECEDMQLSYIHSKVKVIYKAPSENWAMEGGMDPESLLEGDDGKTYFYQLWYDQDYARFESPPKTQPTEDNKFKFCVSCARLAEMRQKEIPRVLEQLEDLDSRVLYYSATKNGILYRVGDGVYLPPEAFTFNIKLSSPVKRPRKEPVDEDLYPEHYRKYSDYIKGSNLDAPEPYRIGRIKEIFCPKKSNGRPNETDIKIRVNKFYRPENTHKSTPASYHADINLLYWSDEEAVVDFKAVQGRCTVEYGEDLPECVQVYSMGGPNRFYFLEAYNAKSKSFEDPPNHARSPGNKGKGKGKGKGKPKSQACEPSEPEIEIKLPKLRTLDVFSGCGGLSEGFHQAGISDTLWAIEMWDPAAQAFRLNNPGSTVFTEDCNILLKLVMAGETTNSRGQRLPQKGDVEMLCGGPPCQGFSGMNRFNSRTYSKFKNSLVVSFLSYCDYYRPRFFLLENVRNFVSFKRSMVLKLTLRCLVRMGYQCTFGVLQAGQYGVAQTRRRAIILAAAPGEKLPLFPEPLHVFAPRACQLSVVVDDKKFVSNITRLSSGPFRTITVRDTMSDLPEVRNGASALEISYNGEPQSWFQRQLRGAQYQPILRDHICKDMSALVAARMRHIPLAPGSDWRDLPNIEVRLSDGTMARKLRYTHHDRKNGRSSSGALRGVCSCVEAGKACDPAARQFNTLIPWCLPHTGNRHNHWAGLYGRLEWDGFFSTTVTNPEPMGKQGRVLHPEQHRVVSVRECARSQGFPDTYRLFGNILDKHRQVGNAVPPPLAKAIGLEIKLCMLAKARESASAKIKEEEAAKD
# protocol summary: inhibition of DNA methyltransferase DNMT1 – biochemical, molecular beacon, fluorescence, HinP1I cleavage, uHTS, primary screen (AID 588458)
# cond: at 10 µM, active compounds read high
Among all 360,000 compounds or so, about 3,000 (0.83%) were called active. The sample as a whole holds a higher share of actives than the screen did.
reported property: inhibition (reported as % activation of signal) (%)

>>> reported_measurement("COc1ccc(S(=O)(=O)N2CCC(C(=O)NCCC(=O)NCCc3cccc(F)c3)CC2)cc1")
2
>>> reported_measurement("CC(C)n1ncc2c(C(=O)N3CCN(Cc4cccs4)CC3)cc(C3CC3)nc21")
2.36
>>> reported_measurement("CCc1nnc(NC(=O)c2ccco2)s1")
4.22
>>> reported_measurement("O=C(COC(=O)c1ccc(S(=O)(=O)N2CCc3ccccc3C2)cc1)NC(=O)NCc1ccco1")
4.21
>>> reported_measurement("C/C=C\\C=C\\C(=O)N1CC2(CC(c3cccc(NC(=O)/C(C)=C\\C)c3)=NO2)C[C@H]1C(N)=O (some centres undefined)")
-7.28
>>> reported_measurement("Cc1nnc(N(Cc2ccco2)C(=O)c2ccno2)s1")
-1.27
>>> reported_measurement("O=C(Nc1ccc(N2CCN(C(=O)C3CC3)CC2)cc1)c1cccs1")
-1.58
>>> reported_measurement("c1ccc(Cc2c(-c3ccco3)nc3c4ccccc4ccn23)cc1")
-16.2
>>> reported_measurement("O=C(Nc1cccc2cccnc12)c1ccc2sc([C@H]3C[C@H](O)[C@@H](CO)O3)nc2c1")
-5.28
>>> reported_measurement("Cc1cc(=O)oc(C)c1C(=O)NC1CC(C)(C)NC(C)(C)C1")
4.08
>>> reported_measurement("COC(=O)CCCCC1=CCC2C(=O)C=C(O)C2C1 (centres undefined)")
92.7
>>> reported_measurement("CCOC(=O)c1cccc(NC(=O)C2CCCN(S(=O)(=O)c3cnc[nH]3)C2)c1 (centres undefined)")
76.5
>>> reported_measurement("Cc1ccc(CN2CC(N3CCC(Cc4ccccc4)CC3)CS2(=O)=O)cc1 (centres undefined)")
-0.65
>>> reported_measurement("O=C(CCN1C(=O)C2C3CCC(C3)C2C1=O)Nc1ccc(Cl)cc1Cl (centres undefined)")
-0.32
>>> reported_measurement("c1coc(-c2nc3nc4ccccc4n3nc2-c2ccco2)c1")
86.2
>>> reported_measurement("Clc1ccccc1CSc1nnc(-c2ccco2)c(-c2ccco2)n1")
92.8
>>> reported_measurement("COc1ccc(NC(=O)CN(C)C(=O)c2ccc(COc3ccccc3)o2)cc1")
1.54
>>> reported_measurement("O=C(NCc1ccco1)C1CCCN(S(=O)(=O)c2cnc[nH]2)C1 (centres undefined)")
-1.66
>>> reported_measurement("COc1ccc(NC(=O)Cn2c(-c3ccc(OC)cc3)cn(-c3ccc(C)cc3)c2=O)cc1")
-10.9
>>> reported_measurement("CC(=O)N/C(=N/c1nc(C)cc(C)n1)Nc1ccc(F)cc1F")
0.05
>>> reported_measurement("CCOc1cc(NC(=S)NCc2ccco2)c(OCC)cc1NC(=O)c1ccco1")
-8.9
>>> reported_measurement("COc1ccc(NCc2nnc(SCc3ccccc3)n2-c2ccc(OC)cc2)cc1")
-3.05
>>> reported_measurement("c1ccc2cc3[nH]c(CN4CCCCC4)nc3cc2c1")
83.2
>>> reported_measurement("COc1ccc(NC(=O)CCC(=O)Nc2cc(OC)c(NC(=O)c3ccco3)cc2OC)c(OC)c1")
-1.01

* * *

# study system: DNA (cytosine-5)-methyltransferase 1 (Homo sapiens) (UniProt P26358)
# protocol summary: inhibition of DNA methyltransferase DNMT1 – biochemical, molecular beacon, fluorescence, HinP1I cleavage, uHTS, primary screen (AID 588458)
# cond: at 10 µM, active compounds read high
About 3,000 (0.83%) of roughly 360,000 compounds were called active. Shown is part of a subset that was picked to be rich in actives.
reported property: inhibition (reported as % activation of signal) (%)

>>> reported_measurement("Cc1noc(C)c1CSCC(=O)N(CCC(C)C)c1c(N)n(Cc2ccccc2)c(=O)[nH]c1=O")
-0.4
>>> reported_measurement("CC(C)C(NC(=O)c1c(F)cccc1F)C(=O)NCc1ccncc1 (stereo not given)")
1.21
>>> reported_measurement("COC(=O)CN1C(=O)N/C(=C/c2ccc(OC)c(C)c2OC)C1=O")
0.3
>>> reported_measurement("CC(=O)Nc1ccc(NC(=O)CCCNC(=O)c2ccc(Cl)cc2)cc1")
-1.09
>>> reported_measurement("CCOc1ccccc1/C=c1\\sc2nc(-c3ccco3)nn2c1=O")
93.3
>>> reported_measurement("Cc1ccc2c(CN3CCN(S(=O)(=O)c4ccccc4C(F)(F)F)CC3)cc(=O)oc2c1")
-2.32
>>> reported_measurement("Cc1ccccc1NC(=O)Cn1c(=O)n(CC2CCCO2)c(=O)c2ccccc21 (stereo not given)")
1.1
>>> reported_measurement("CSC1=NC2(C)CCCCC2C12C=CC(=O)C=C2 (stereo not given)")
-0.69
>>> reported_measurement("N#Cc1c(N2CCCCC2)nc(N)c2c(N)nc(SCC(=O)O)cc12")
52.1
>>> reported_measurement("Cc1ccc(C(=O)NNc2ncnc3ccccc23)cc1")
2.1
>>> reported_measurement("Cc1ccc(C(=O)NNC(=O)CSc2nnc3ccccn23)cc1")
-3.3
>>> reported_measurement("CC1CCN(C(=O)COC(=O)CCC(=O)c2cccs2)CC1")
0.68
>>> reported_measurement("C/C(=N\\Nc1ccccc1)c1cccs1")
-15
>>> reported_measurement("CCN1CCN(Cc2nc3c(c(=O)n(C)c(=O)n3C)n2CC(=O)c2ccccc2)CC1")
75.4
>>> reported_measurement("CC(=O)Nc1ccc(SCC(=O)NC(=O)c2ccc(Cl)cc2)cc1")
69.8
>>> reported_measurement("COc1ccc(-c2cc(NC=O)c3ncc(-c4cc(OC)c(OC)c(OC)c4)n3c2)c(OC)c1")
-21.8
>>> reported_measurement("COc1ccccc1-c1oc2ccccc2c1C#CCCCCO")
-0.24
>>> reported_measurement("CN(Cc1ccccc1)C(=O)CCC1CCN(C(=O)c2ccco2)CC1")
0.12
>>> reported_measurement("COc1ccc(Cc2cc(-c3ccc(F)cc3)n[nH]c2=O)cc1")
-1.27
>>> reported_measurement("CC(=O)Nc1cccc(C(=O)OCC(=O)Nc2nnc(-c3ccccc3)o2)c1")
1.02
>>> reported_measurement("COc1ccc(NC(=O)C2C3C=CC(C3)C2C(=O)NCc2ccccn2)c(OC)c1 (stereo not given)")
1.26
>>> reported_measurement("O=C(COc1cccc2c1CCNC2=O)NC1CCCCC1")
0.71
>>> reported_measurement("CC(=O)c1ccc(NC(=O)CCNS(=O)(=O)c2cc(Br)cnc2N)cc1")
2.08
>>> reported_measurement("CC(C)C1CC2=C(C(=O)OC(C)(C)O2)C(c2ccc(F)cc2)O1 (stereo not given)")
0.41
>>> reported_measurement("COc1ccc(C(=O)OCC(=O)Nc2cccc(C(C)=O)c2)cc1OC")
70.9
>>> reported_measurement("COc1ccc(C)cc1NC(=O)CCCN1C(=O)NC(C)(C)C1=O")
2.66
>>> reported_measurement("CCOC(=O)C/C(C)=N\\Nc1ccc([N+](=O)[O-])cc1[N+](=O)[O-]")
8.42
>>> reported_measurement("Cc1cc(NC(=O)C(C)SCC(=O)Nc2cccc(S(=O)(=O)N3CCCCCC3)c2)no1 (stereo not given)")
3.04
>>> reported_measurement("Cc1cccc(-c2cnc(C(O)c3cc(C)cc(C)c3)[nH]2)c1 (stereo not given)")
4.05
>>> reported_measurement("CC(=O)NC1C(Oc2ccc(C)cc2)OC2COC(c3ccco3)OC2C1O (stereo not given)")
3.51

* * *

# study system: DNA (cytosine-5)-methyltransferase 1 (Homo sapiens) (UniProt P26358)
# protocol summary: inhibition of DNA methyltransferase DNMT1 – biochemical, molecular beacon, fluorescence, HinP1I cleavage, uHTS, primary screen (AID 588458)
# cond: at 10 µM, active compounds read high
The whole screen tested about 360,000 compounds, of which about 3,000 (0.83%) were called active. Many of the other results were omitted from the sample, so actives are more common in it than they were.
reported property: inhibition (reported as % activation of signal) (%)

>>> reported_measurement("C=CCn1c(=S)[nH]c2scc(-c3ccco3)c2c1=O")
94.1
>>> reported_measurement("COc1ccc(Cl)cc1S(=O)(=O)Nc1cccc(C(=O)O)c1")
-3.3
>>> reported_measurement("Cc1cc([N+](=O)[O-])ccc1NS(=O)(=O)c1ccccc1")
3.46
>>> reported_measurement("CCCNC(=O)C(=O)Nc1cc2c3c(c1)CCC(=O)N3CCC2")
-0.17
>>> reported_measurement("CC1(C)CC(=O)C(C2c3ccccc3S(=O)(=O)c3ccccc32)C(=O)C1")
1.21
>>> reported_measurement("CC(C)c1cc(C(=O)N/N=C/c2ccoc2)c(O)c(C(C)C)c1")
13.8
>>> reported_measurement("CC(CCc1ccc(O)cc1)NCc1ccc(Cl)cc1Cl (stereo not drawn)")
1.55
>>> reported_measurement("CC(C)(C)C(=O)N1CCC[C@@]1(CO)C(=O)O")
5.81
